system.name: GABA-A receptor; alpha-5/beta-3/gamma-2 (Homo sapiens, UniProt P18507+P28472+P31644)
assay.overview: Binding affinity measured using LtK- cell membranes expressing Gamma-aminobutyric acid A receptor alpha-5-beta-3-gamma-2
measured.endpoint: pKi
The meaning of pKi here: minus log10 of the concentration in molar units.

As a guide, the following entries are already answered.
CCOC(=O)c1ncc2[nH]c3ccc(OCc4ccccc4)cc3c2c1COC 8.35
CCCOc1ccc2[nH]c3cnc(OCCC)c(COC)c3c2c1 6.48

Problem: Which pKi is listed for `CCOC(=O)c1[nH]cc2nc3ccc(OCc4cccc5ccccc45)cc3c-2c1COC` ?
Result: 6.49

###

The entries below come with measured pKi values attached.
system.name: GABA-A receptor; alpha-2/beta-3/gamma-2 (Homo sapiens, UniProt P18507+P28472+P47869)
assay.overview: Binding affinity measured using LtK- cell membranes expressing GABA alpha-2-beta-3-gamma-2 receptor
The meaning of pKi here: minus log10 of the concentration in molar units.

As a guide, the following entries are already answered.
molecule	system.name	pKi
CCCOc1ccc2[nH]c3cnc(C(=O)OCC)c(COC)c3c2c1	GABA-A receptor; alpha-2/beta-3/gamma-2 (Homo sapiens, UniProt P18507+P28472+P47869)	8.92
CCCOc1ccc2[nH]c3cnc(N)c(COC)c3c2c1	GABA-A receptor; alpha-2/beta-3/gamma-2 (Homo sapiens, UniProt P18507+P28472+P47869)	6.27
CCOC(=O)c1[nH]cc2nc3ccc(OCc4cccc5ccccc45)cc3c-2c1CC	GABA-A receptor; alpha-2/beta-3/gamma-2 (Homo sapiens, UniProt P18507+P28472+P47869)	6.54
CC(C)COc1cc2c(cn1)[nH]c1ccccc12	GABA-A receptor; alpha-2/beta-3/gamma-2 (Homo sapiens, UniProt P18507+P28472+P47869)	6.91
CCOC(=O)c1[nH]cc2nc3ccc(OCc4ccccc4)cc3c-2c1CC	GABA-A receptor; alpha-2/beta-3/gamma-2 (Homo sapiens, UniProt P18507+P28472+P47869)	7.11

Problem: Which pKi is listed for `CCCOc1cc2c(cn1)[nH]c1ccccc12` ?
Result: 7.28

###

system.name: GABA-A receptor; alpha-2/beta-3/gamma-2 (Homo sapiens, UniProt P18507+P28472+P47869)
assay.overview: Binding affinity measured using LtK- cell membranes expressing GABA alpha-2-beta-3-gamma-2 receptor
Ki vs 0.08 µM: less than gives criterion met; not less than gives criterion not met.

molecule	system.name	category
CC(C)CCOc1cc2c3ccccc3nc-2c[nH]1	GABA-A receptor; alpha-2/beta-3/gamma-2 (Homo sapiens, UniProt P18507+P28472+P47869)	criterion not met

Problem: Does `CCOc1[nH]cc2nc3cc(OC)c(OC)cc3c-2c1CC` have Ki strictly under 0.08 µM?
Result: criterion not met

Problem: Does `CCCCCCCCOc1ccc2[nH]c3cnc(C(=O)OCC)c(CC)c3c2c1` have Ki strictly under 0.08 µM?
Result: criterion not met

Problem: Does `CCCCOc1cc2c(cn1)[nH]c1ccccc12` have Ki strictly under 0.08 µM?
Result: criterion not met

Problem: Does `CCOC(=O)c1ncc2[nH]c3ccccc3c2c1COC` have Ki strictly under 0.08 µM?
Result: criterion met

Problem: Does `COCc1c(N=C=S)[nH]cc2nc3ccc(OCc4ccccc4)cc3c1-2` have Ki strictly under 0.08 µM?
Result: criterion not met

Problem: Does COCc1c(C(=O)OC(C)C)ncc2[nH]c3ccc(OCc4ccccc4)cc3c12 [ABECARNIL] have Ki strictly under 0.08 µM?
Result: criterion met

###

system.name: GABA-A receptor; alpha-5/beta-3/gamma-2 (Homo sapiens, UniProt P18507+P28472+P31644)
assay.overview: Binding affinity for GABA-A alpha-5-beta-3-gamma-2 receptor expressed in L (tk-) cells
Assay type: cell-based
measured.endpoint: Ki (µM)
Please respond with the number in µM and leave the unit unwritten.

Problem: Tell me reported Ki for `CCCCCCCCOc1ccc2[nH]c3cnc(C(=O)OCC)c(CC)c3c2c1` , tested with GABA-A receptor; alpha-5/beta-3/gamma-2 (Homo sapiens, UniProt P18507+P28472+P31644).
Result: 12.7

###

system.name: GABA-A receptor; alpha-6/beta-3/gamma-2 (Homo sapiens, UniProt P18507+P28472+Q16445)
assay.overview: Binding affinity measured using LtK- cell membranes expressing Gamma-aminobutyric acid A receptor alpha-6-beta-3-gamma-2
measured.endpoint: Ki

As a guide, the following entries are already answered.
CCc1c(OC)[nH]cc2nc3cc(OC)c(OC)cc3c1-2 > 0.3 µM
CC(C)Oc1cc2c(cn1)[nH]c1ccccc12 > 10 µM
CC(C)(C)OC(=O)c1cc2c3ccccc3nc-2c[nH]1 > 5 µM
CCOc1[nH]cc2nc3cc(OC)c(OC)cc3c-2c1CC > 0.3 µM
CC(C)CCOc1cc2c3ccccc3nc-2c[nH]1 > 10 µM

Please examine the following record next.
Problem: Which Ki is listed for `CCOC(=O)c1[nH]cc2nc3cc(OC)c(OC)cc3c-2c1CC` ?
Result: 0.0749 µM

###

system.name: GABA-A receptor; alpha-3/beta-3/gamma-2 (Homo sapiens, UniProt P18507+P28472+P34903)
assay.overview: Binding affinity measured using LtK- cell membranes expressing GABA alpha-3-beta-3-gamma-2 receptor
pKi: −log10 of the molar value.
Label rule met when pKi is at or above 8; anything below gets rule not met.

Below are worked cases with known answers.
compound	category
CCc1c(C(=O)OC)ncc2[nH]c3cc(OC)c(OC)cc3c12	rule met
CCCOc1ccc2[nH]c3cnc(C(=O)OCC)c(COC)c3c2c1	rule met
CCOC(=O)c1[nH]cc2nc3ccc(OCc4cccc5ccccc45)cc3c-2c1COC	rule not met

Problem: Check this compound for pKi at or above 8: `CCOC(=O)c1[nH]cc2nc3cc(OC)c(OC)cc3c-2c1CC`
Result: rule met

Problem: Check this compound for pKi at or above 8: CCC(C)Oc1cc2c3ccccc3nc-2c[nH]1 (configuration not stated)
Result: rule not met

Problem: Check this compound for pKi at or above 8: `CCOC(=O)c1ncc2[nH]c3ccccc3c2c1COC`
Result: rule met

Problem: Check this compound for pKi at or above 8: `CCOc1[nH]cc2nc3cc(OC)c(OC)cc3c-2c1CC`
Result: rule not met

Problem: Check this compound for pKi at or above 8: `CCOC(=O)c1[nH]cc2nc3ccc(OC)cc3c-2c1COC`
Result: rule met

Problem: Check this compound for pKi at or above 8: `CC(C)CCOc1cc2c3ccccc3nc-2c[nH]1`
Result: rule not met

Problem: Check this compound for pKi at or above 8: `CCOC(=O)c1ncc2c(c1CC)c1ccccc1n2C`
Result: rule not met

Problem: Check this compound for pKi at or above 8: `CC(C)(C)OC(=O)c1cc2c3ccccc3nc-2c[nH]1`
Result: rule not met

###

system.name: GABA-A receptor; anion channel
assay.overview: Displacement of [3H]flunitrazepam from GABA-A Benzodiazepine receptor of rat brain cortical membranes
Format: cell membranes, Membrane
measured.endpoint: pIC50
The meaning of pIC50 here: minus log10 of the concentration in molar units.

CCCOc1[nH]cc2nc3ccc(OCc4ccccc4)cc3c-2c1COC 7.20

Please examine the following record next.
Problem: Which pIC50 is listed for `CCCOc1ccc2[nH]c3cnc(OCCC)c(COC)c3c2c1` ?
Result: 7.36

###

system.name: GABA-A receptor; alpha-2/beta-3/gamma-2 (Homo sapiens, UniProt P18507+P28472+P47869)
Sequence (P18507 whole entry): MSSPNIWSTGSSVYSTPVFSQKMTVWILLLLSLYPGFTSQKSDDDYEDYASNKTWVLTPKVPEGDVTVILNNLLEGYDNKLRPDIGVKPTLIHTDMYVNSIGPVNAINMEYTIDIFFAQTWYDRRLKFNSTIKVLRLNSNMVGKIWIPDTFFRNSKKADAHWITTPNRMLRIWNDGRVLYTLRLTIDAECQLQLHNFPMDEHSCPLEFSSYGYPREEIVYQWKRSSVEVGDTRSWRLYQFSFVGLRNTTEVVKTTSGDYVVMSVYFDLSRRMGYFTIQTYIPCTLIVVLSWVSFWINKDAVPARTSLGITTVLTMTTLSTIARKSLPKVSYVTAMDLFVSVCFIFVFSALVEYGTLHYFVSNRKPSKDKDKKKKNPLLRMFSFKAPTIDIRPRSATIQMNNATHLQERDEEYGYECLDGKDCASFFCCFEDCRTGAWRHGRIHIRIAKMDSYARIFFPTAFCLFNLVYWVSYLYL
Sequence (P28472 whole entry): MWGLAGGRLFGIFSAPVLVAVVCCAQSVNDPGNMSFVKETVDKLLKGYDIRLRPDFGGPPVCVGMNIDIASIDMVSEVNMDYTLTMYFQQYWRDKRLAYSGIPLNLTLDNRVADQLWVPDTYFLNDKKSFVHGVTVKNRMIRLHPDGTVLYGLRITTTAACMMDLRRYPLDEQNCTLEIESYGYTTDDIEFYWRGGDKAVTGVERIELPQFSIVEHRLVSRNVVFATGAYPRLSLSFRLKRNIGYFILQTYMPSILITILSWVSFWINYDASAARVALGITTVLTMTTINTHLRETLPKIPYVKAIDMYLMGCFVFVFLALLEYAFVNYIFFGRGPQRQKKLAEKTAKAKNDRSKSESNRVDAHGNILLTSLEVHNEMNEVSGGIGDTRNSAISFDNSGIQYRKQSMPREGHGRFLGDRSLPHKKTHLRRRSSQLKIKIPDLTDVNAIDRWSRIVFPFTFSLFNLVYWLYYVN
Sequence (P47869 whole entry): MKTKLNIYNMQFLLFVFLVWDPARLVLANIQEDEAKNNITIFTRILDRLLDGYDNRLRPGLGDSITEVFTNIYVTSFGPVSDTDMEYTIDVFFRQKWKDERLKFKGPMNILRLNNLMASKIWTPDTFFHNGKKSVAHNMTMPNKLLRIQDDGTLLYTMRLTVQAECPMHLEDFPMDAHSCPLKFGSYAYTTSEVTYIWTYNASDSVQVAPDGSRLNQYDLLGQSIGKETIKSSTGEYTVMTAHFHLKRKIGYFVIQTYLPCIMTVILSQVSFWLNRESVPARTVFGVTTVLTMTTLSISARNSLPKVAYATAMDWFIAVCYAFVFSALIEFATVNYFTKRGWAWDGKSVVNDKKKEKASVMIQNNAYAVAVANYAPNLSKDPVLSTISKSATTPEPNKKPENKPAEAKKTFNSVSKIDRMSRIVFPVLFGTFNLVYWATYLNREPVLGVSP
assay.overview: Binding affinity for GABA-A alpha-2-beta-3-gamma-2 receptor expressed in L(tk-) cells
Format: cell-based
measured.endpoint: pKi
The meaning of pKi here: minus log10 of the concentration in molar units.

Problem: Which pKi is listed for `CCOc1cc2c(cn1)[nH]c1ccccc12` ?
Result: 7.60
